FYI, the data here is from paper PMC8584424.

Quick reference for IC50 among some compounds
System: WI38 normal cells
Assay: In vitro cytotoxicity assessment (MTT), normal cells
Type: cell-based
Conditions: WI-38; normal human cell line WI38, MTT

smiles-string	uom	IC50
Cc1[nH]c(=S)[nH]c(=O)c1S(=O)(=O)Nc1cccc(C(=O)C=Cc2ccc(Br)cc2)c1	µM	62.7
Cc1ccc(NS(=O)(=O)c2c(C)[nH]c(=S)[nH]c2=O)cc1	µM	84.4
Cc1[nH]c(=S)[nH]c(=O)c1S(=O)(=O)Nc1ccc(Br)cc1	µM	70.6
Cc1[nH]c(=S)[nH]c(=O)c1S(=O)(=O)Nc1cccc(C(=O)C=Cc2ccc([N+](=O)[O-])cc2)c1	µM	79.9

---

Tested on: HT-29 (colon) cancer cells
Assay: In vitro cytotoxicity assessment (MTT), HT-29
Assay type: cell-based, human
Conditions: Homo sapiens, HT-29; 48 h, MTT; mean of three experiments ± SD; NA: not active
measured-metric: log10 IC50 (log10 of the value in µM)

compound	log10 IC50
Cc1[nH]c(=S)[nH]c(=O)c1S(=O)(=O)NNc1ccc([N+](=O)[O-])cc1[N+](=O)[O-]	1.00
Cc1[nH]c(=S)[nH]c(=O)c1S(=O)(=O)Cl	1.26
Cc1[nH]c(=S)[nH]c(=O)c1S(=O)(=O)NNc1ccccc1	0.91
O=c1[nH]cc(F)c(=O)[nH]1 [Compound 5-FU, 5-fluorouracil, reference compound]	0.67
Cc1[nH]c(=S)[nH]c(=O)c1S(=O)(=O)Nc1cccc(C(=O)C=Cc2ccc(Br)cc2)c1	0.91
Cc1[nH]c(=S)[nH]c(=O)c1S(=O)(=O)Nc1cccc(C(=O)C=Cc2ccc([N+](=O)[O-])cc2)c1	0.45
Cc1ccc(NS(=O)(=O)c2c(C)[nH]c(=S)[nH]c2=O)cc1	0.74
Cc1[nH]c(=S)[nH]c(=O)c1S(=O)(=O)NNC(=O)c1ccc(Br)cc1	0.84
Cc1[nH]c(=S)[nH]c(=O)c1S(=O)(=O)C1Cc2ccccc2C1=O (centres unmarked)	1.07
Cc1[nH]c(=S)[nH]c(=O)c1S(=O)(=O)NNC(=O)c1ccc(Cl)cc1	0.82
Cc1[nH]c(=S)[nH]c(=O)c1S(=O)(=O)NNC(=O)c1ccccc1Cl	1.03
Cc1[nH]c(=S)[nH]c(=O)c1S(=O)(=O)NNC(N)=S	0.90
Cc1[nH]c(=S)[nH]c(=O)c1S(=O)(=O)C1C(=O)CC(C)(C)CC1=O	1.15
Cc1[nH]c(=S)[nH]c(=O)c1S(=O)(=O)C1C(=O)NC(=O)NC1=O	1.11
Cc1[nH]c(=S)[nH]c(=O)c1S(=O)(=O)Nc1cccc(Cl)c1Cl	0.24
Cc1[nH]c(=S)[nH]c(=O)c1S(=O)(=O)Nc1cccc(C(=O)C=Cc2ccc(Cl)cc2)c1	0.62
CC(=O)c1cccc(NS(=O)(=O)c2c(C)[nH]c(=S)[nH]c2=O)c1	0.79

---

Quick reference for melting point among some compounds
measured-metric: melting point

compound	measured-metric	reported
Cc1[nH]c(=S)[nH]c(=O)c1S(=O)(=O)NNC(N)=S [Compound 8a]	melting point	343 to 345 °C
Cc1[nH]c(=S)[nH]c(=O)c1S(=O)(=O)Nc1cccc(C(=O)C=Cc2ccc([N+](=O)[O-])cc2)c1 [Compound 7b]	melting point	318 to 320 °C
Cc1[nH]c(=S)[nH]c(=O)c1S(=O)(=O)Cl [Compound 2]	melting point	324 to 326 °C
CC(=O)c1cccc(NS(=O)(=O)c2c(C)[nH]c(=S)[nH]c2=O)c1 [Compound 6d]	melting point	318 to 320 °C
Cc1[nH]c(=S)[nH]c(=O)c1S(=O)(=O)NNc1ccc([N+](=O)[O-])cc1[N+](=O)[O-] [Compound 8c]	melting point	321 to 323 °C
Cc1[nH]c(=S)[nH]c(=O)c1S(=O)(=O)NNC(=O)c1ccc(Cl)cc1 [Compound 9a]	melting point	327 to 329 °C
Cc1[nH]c(=S)[nH]c(=O)c1S(=O)(=O)C1C(=O)NC(=O)NC1=O [Compound 3]	melting point	344 to 346 °C
Cc1[nH]c(=S)[nH]c(=O)c1S(=O)(=O)Nc1cccc(Cl)c1Cl [Compound 6e]	melting point	326 to 328 °C
Cc1[nH]c(=S)[nH]c(=O)c1S(=O)(=O)Nc1ccccc1 [Compound 6a]	melting point	316 to 318 °C
Cc1[nH]c(=S)[nH]c(=O)c1S(=O)(=O)NNC(=O)c1ccc(Br)cc1 [Compound 9c]	melting point	339 to 341 °C
